assay: Fraction unbound in Wistar rat plasma at 2.5 uM by LC-MS/MS analysis; type: ADME, cell-free
Reported metric: fraction unbound at 2.5 µM
// no unit string in output, number only

Lab note: C[C@@H]1CC[C@@]2(OC1)O[C@H]1C[C@H]3[C@@H]4CC=C5C[C@@H](O[C@@H]6O[C@H](CO)[C@@H](O[C@@H]7O[C@@H](C)[C@H](O)[C@@H](O)[C@H]7O)[C@H](O)[C@H]6O[C@@H]6O[C@@H](C)[C@H](O)[C@@H](O)[C@H]6O)CC[C@]5(C)[C@H]4CC[C@]3(C)[C@H]1[C@@H]2C [DIOSCIN] gave fraction unbound at 2.5 µM of 0.061
